Target: T1, Abeta peptide (40-amino acid Abeta peptide, SEQ ID NO: 1), biotinylated (human, N-terminal biotin or C-terminal lysine-linked biotin, separated from the peptide by a PEG6 linker)
T1 construct: Synthesized by Genscript; also called amyloid beta; test peptide
T1 sequence (peptide, as listed by the source): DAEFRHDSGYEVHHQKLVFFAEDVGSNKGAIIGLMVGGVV
Experiment: BLI (Octet HTX), biotinylated Abeta on streptavidin sensors, 1 uM VHH, 1:1 fit
Experimental Readout: koff (s⁻¹)

Consider the reported koff for these binders:
The value of koff measured for the binder vhhLib05-8 (VHH, The entry as printed includes a doubled TLVTVSS and HHHHHH; also called 13BHK) VHH: EVQLLESGGGLVQPGGSLRLSCAASGFTFSSYAMSWVRQAPGKQREWVSAISGSGGRTYYADSVKGRFTISRDNSKNTLYLQMNSLRAEDTAVYYCARHSIPVDGIVAFDHWGQGTLVTVSS turned out to be 0.000269

Looking up vhhLib05-78 (VHH, The entry as printed includes a doubled TLVTVSS and HHHHHH) VHH: EVQLLESGGGLVQPGGSLRLSCAASGFTFSSYAMTWVRQAPGKQREWVSAISGSGGSTYYADSVKGRFTISRDNSKNTLYLQMNSLRAEDTAVYYCARLATHVDNGLGYNYFDVWGQGTLVTVSS , I see its koff listed as 0.00133

Measured koff of vhhLib05-83 (VHH, The entry as printed includes a doubled TLVTVSS-like stretch and HHHHHH) VHH: EVQLLESGGGLVQPGGSLRLSCAASGFTFSNYAMSWVRQAPGKQREWVSAISGSGGSTYYADSVKGRFTISRDNSKNTLYLQMNSLRAEDTAVYYCARLFLQQADGLYYYYAFDPWGQGTPVTVSS : 0.00112

The value of koff measured for the binder vhhLib05-25 (VHH, The entry as printed includes a doubled TLVTVSS and HHHHHH) VHH: EVQLLESGGGLVQPGGSLRLSCAASGFTFSSYAMSWVRQAPGKQREWVSAISGSGGSTYYADSVKGRFTISRDNSKNTLYLQMNSLRAEDTAVYYCARHRQADGITYFDIWGQGTLVTVSS turned out to be 0.000337

The binder identified as vhhLib01-75 (VHH, The entry as printed includes HHHHHH) VHH: QVQLVESGGGLVQPGGSLRLSCAASGSIFSSNRMGWYRQAPGKQRELVAAIFSGGHTNYADSVKGRFTISRDNAKNTVYLQMNSLKPEDTAVYYCARPVDWSGPFDIWGQGTLVTVSS registered its koff at 0.00324

Input vhhLib01-86 (VHH, The entry as printed includes a doubled TLVTVSS and HHHHHH; also called vhbLib01-86) VHH: QVQLVESGGGLVQPGGSLRLSCAASGSIFSANHMGWYRQAPGKQRELVAAILSGGVTNYADSVKGRFTISRDNAKNTVYLQMNSLKPEDTAVYYCARGQVDTKYGYYYFDSWGQGTLVTVSS . Output koff: 0.0033

(I) vhhLib02-26 (VHH, The entry as printed includes HHHHHH) VHH: EVQLVESGGGLVQPGGSLRLSCAASGFTFSAYIMSWYRQAPGKQRELVGAIVSGGLTYYADSVKGRFTISRDNSKNTLYLQMNSLRAEDTAVYYCARHWRWYDSNLVFDLWGQGTLVTVSS
(II) vhhLib01-3 (VHH, The entry as printed includes HHHHHH) VHH: QVQLVESGGGLVQPGGSLRLSCAASGSIFSFNLMGWYRQAPGKQRELVAAINSGGSTNYADSVKGRFTISRDNAKNTVYLQMNSLKPEDTAVYYCARDYTVYVSYYDGRFDYWGQGTLVTVSS
Response body: label of entry with the larger koff; valid values I , II . State the label of the item chosen.
I
(I: 0.0137 s⁻¹, II: 0.00353 s⁻¹)
